// provenance: PubChem BioAssay (NCI)

tested on: A498 renal; experiment: NCI-60 one-dose screen, 48 h (100 = growth as untreated, 0 = no growth, -100 = all killed); settings: 10 µM unless noted
This is part of a sample that, as a whole, favours compounds with a hit. Of some 83,000 tested, about 20% had one in any assay.
Criterion: growth strictly less than 80%. Met: condition met. Not met: condition not met.

SMILES RECORD	SYSTEM NAME	ANSWER LABEL
COc1cccc(/C=C/C(=O)Nc2cc(OC)c3c(c2)OCO3)c1	A498 renal	condition met
COc1cc2c(cc1OCCCN1CCN(CCCn3c4ccccc4c4ccccc43)CC1)N=C[C@@H]1CCCN1C2=O	A498 renal	condition met
COc1ccc(/C=C2\CN(Cc3cn(CCNc4ccnc5cc(Cl)ccc45)nn3)C/C(=C\c3ccc(OC)c(OC)c3)C2=O)cc1OC	A498 renal	condition met
COc1cc2c(cc1O)CCN1C[C@@H](CC(C)C)[C@@H](O)C[C@@H]21	A498 renal	condition not met
Clc1ccc(-c2nc3ccccc3s2)cc1Cl	A498 renal	condition met
